# Experimental System: Nuclear receptor subfamily 1 group I member 3 (Homo sapiens) (UniProt Q14994)
# Sequence (Q14994 whole entry, looked up): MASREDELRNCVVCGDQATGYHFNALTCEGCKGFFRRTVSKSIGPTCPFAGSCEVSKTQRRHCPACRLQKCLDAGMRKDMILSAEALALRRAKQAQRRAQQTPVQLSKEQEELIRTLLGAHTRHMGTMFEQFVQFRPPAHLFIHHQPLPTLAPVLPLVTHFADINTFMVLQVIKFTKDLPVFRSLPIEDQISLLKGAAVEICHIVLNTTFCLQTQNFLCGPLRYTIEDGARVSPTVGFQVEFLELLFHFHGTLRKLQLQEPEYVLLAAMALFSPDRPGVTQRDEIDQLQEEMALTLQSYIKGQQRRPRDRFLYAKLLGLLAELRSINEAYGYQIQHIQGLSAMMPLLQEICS
# Assay Details: qHTS assay to identify small molecule agonists of the constitutive androstane receptor (CAR) signaling pathway (AID 1224839); further: nearly all actives have a fitted effect of over 15% in size;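 on activation: HepG2 cells stably carrying human CAR and a CYP2B6 luciferase reporter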
# Experimental Setup: HepG2 hCAR CYP2B6-luciferase, agonist mode, 24 h; series mostly up to 92.4 µM
Inconclusive results are not listed. Active and inactive are the calls of the source. The call rests on the fitted dose curve; in most records, active means well fitted activation curve with a large enough effect in the repeat runs; inconclusive means weak or mixed curves; inactive means no such curve, though single readings can be large or run the other way.
Field 'call' accepts Yes (active), No (inactive)

Exam item: Called result for Clc1ccc(Nc2nnc(Cc3ccncc3)c3ccccc23)cc1
Marked response: Yes

Exam item: Repeat with CC(=O)Nc1ccc(C)cc1C
Marked response: No

Exam item: Repeat with CCCCC(CC)CN (stereo unspecified)
Marked response: No

Exam item: Repeat with CN1C(=O)OC(C)(C)C1=O
Marked response: No

Exam item: Repeat with O=C(O)C[C@H](NC(=O)OCc1ccccc1)C(=O)O
Marked response: No

Exam item: Repeat with CC1(C)O[C@@H]2C[C@H]3[C@@H]4C[C@H](F)C5=CC(=O)C=C[C@]5(C)[C@H]4[C@@H](O)C[C@]3(C)[C@]2(C(=O)CO)O1
Marked response: No

* * *

# Experimental System: Cytochrome P450 2C19 (Homo sapiens)
# Assay Details: Cytochrome P450 Family 2 Subfamily C Member 19 (CYP2C19) small molecule antagonists: luciferase reporter qHTS assay (AID 1671197); further: nearly all actives have a fitted effect of over 65% in size
# Experimental Setup: P450-Glo CYP2C19 enzyme, luciferin luminescence, 1 h; series mostly up to 52.9 µM
Inconclusive results are not listed. The source made the active and inactive calls. The call rests on the fitted dose curve; in most records, active means well fitted inhibition curve with a large enough effect in the repeat runs; inconclusive means weak or mixed curves; inactive means no such curve, though single readings can be large or run the other way.
Field 'call' accepts active, inactive

Exam item: Called result for Cc1cc(C)cc(N)c1
Marked response: active

Exam item: Repeat with O=[N+]([O-])c1cc(C2CCCCC2)c(O)c([N+](=O)[O-])c1
Marked response: active

Exam item: Repeat with O=C(O)CCc1nc(-c2ccccc2)c(-c2ccccc2)o1
Marked response: inactive

Exam item: Repeat with C[C@@H]1CN(CCCn2c3ccccc3c3ccccc32)C[C@H](C)N1
Marked response: inactive

Exam item: Repeat with CC(C)=CCC/C(C)=C/CC/C(C)=C/C(=O)OCC(=O)[C@@]1(O)CC[C@H]2[C@@H]3CCC4=CC(=O)C=C[C@]4(C)[C@H]3[C@@H](O)C[C@@]21C
Marked response: active

Exam item: Repeat with CC(C)=CCC1C(=O)N(c2ccccc2)N(c2ccccc2)C1=O
Marked response: active

Exam item: Repeat with Cc1ccc(C(C)(C)O)cc1
Marked response: inactive

Exam item: Repeat with O=C1c2ccccc2C(=O)N1CCc1noc(-c2ccc(CN3CCCCCC3)s2)n1
Marked response: active

Exam item: Repeat with O=[N+]([O-])c1ccc(O/N=C/c2cc(Br)c(O)c(Br)c2)c([N+](=O)[O-])c1
Marked response: active

Exam item: Repeat with C=C(C)[C@@H]1CCC2=CCC[C@@H](C)[C@]2(C)C1
Marked response: active

Exam item: Repeat with C=C1CCC2CC1C2(C)C (stereo unspecified)
Marked response: inactive

* * *

# Assay Details: A CellTox Green Cytotoxicity Assay to monitor cytotoxicity in HepG2 cells - 32 hour (AID 1224883); further: nearly all actives have a fitted effect of over 50% in size
# Experimental Setup: CellTox Green fluorescence; series mostly up to 76.8 µM
Records with an inconclusive call do not appear. The source made the active and inactive calls. Calls come from the whole dose curve; as a rule, active = well fitted activation curve with a large enough effect in the repeat runs; inconclusive = weak or mixed curves; inactive = flat fitted curve, though single readings scatter.
Field 'call' accepts Yes (active), No (inactive)

Exam item: Called result for C[C@@H](O)[C@H]1C(=O)N2C(C(=O)O)=C([C@H]3CCCO3)S[C@H]12
Marked response: No

Exam item: Repeat with O=C1CCCCCCCCCCOCCCCO1
Marked response: No

Exam item: Repeat with CN1CCCC(n2nc(Cc3ccc(Cl)cc3)c3ccccc3c2=O)CC1 (centres undefined)
Marked response: Yes

Exam item: Repeat with CCN(CC)CCNC(=O)COc1ccc(OC)cc1
Marked response: No

Exam item: Repeat with O=C(/C=C/c1ccccc1)OCCc1ccccc1
Marked response: No

Exam item: Repeat with CCCCCC[C@@H](O)C/C=C\CCCCCCCC(=O)O
Marked response: No

Exam item: Repeat with CC1CC(C)C(=O)C1=O (centres undefined)
Marked response: No

Exam item: Repeat with Cc1cc(=O)c2c(O)c3c(O)cc(=O)c4c3c3c(cc(O)c1c23)C(C)(C)C=4O
Marked response: Yes

Exam item: Repeat with CN1C(C(=O)Nc2ccccn2)=C(O)c2sccc2S1(=O)=O
Marked response: No

Exam item: Repeat with O=C(CCc1ccc(O)cc1)c1c(O)cc(O)cc1O
Marked response: No

Exam item: Repeat with CC(C)COCC(CN(Cc1ccccc1)c1ccccc1)N1CCCC1 (centres undefined)
Marked response: Yes

Exam item: Repeat with O=C(O)C[C@H](NC(=O)OCc1ccccc1)C(=O)O
Marked response: No

Exam item: Repeat with C[C@@H](CN(C)C)CN1c2ccccc2Sc2ccccc21
Marked response: Yes

Exam item: Repeat with Cc1ccc2c(Br)cc(Br)c(O)c2n1
Marked response: No

Exam item: Repeat with Brc1cc(Br)c(Oc2cc(Br)c(Br)cc2Br)cc1Br
Marked response: No

Exam item: Repeat with OCCOCC#CCOCCO
Marked response: No

Exam item: Repeat with O=C(O)c1cccc(-c2noc(-c3ccccc3F)n2)c1
Marked response: No

Exam item: Repeat with CCC(C)(C)OC
Marked response: No

Exam item: Repeat with Cc1ccc(C(C)(C)O)cc1
Marked response: No

Exam item: Repeat with C=C1c2cccc(O)c2C(O)=C2C(=O)[C@]3(O)C(O)=C(C(N)=O)C(=O)[C@@H](N(C)C)[C@@H]3[C@@H](O)[C@H]12
Marked response: No

Exam item: Repeat with C=CC(=O)OCC1CC2CC1C1CCC(COC(=O)C=C)C21 (centres undefined)
Marked response: Yes

Exam item: Repeat with CCC1NC(=O)c2cc(S(N)(=O)=O)c(Cl)cc2N1 (centres undefined)
Marked response: No

Exam item: Repeat with CC(O)c1ccccc1 (centres undefined)
Marked response: No

Exam item: Repeat with COC(=O)C1=C(C)NC(C)=C(C(=O)O[C@@H]2CCCN(Cc3ccccc3)C2)[C@@H]1c1cccc([N+](=O)[O-])c1
Marked response: No

Exam item: Repeat with CC1(C)[C@H](C(=O)O)N2C(=O)C[C@H]2S1(=O)=O
Marked response: No

Exam item: Repeat with O=C(O)CCC(=O)C(=O)O
Marked response: No

Exam item: Repeat with CC(C)(c1ccccc1)c1ccccc1
Marked response: No

Exam item: Repeat with CCOC(=O)OC(C)OC(=O)[C@@H]1N2C(=O)[C@@H](NC(=O)[C@H](N)c3ccccc3)[C@H]2SC1(C)C (some centres undefined)
Marked response: No

Exam item: Repeat with CCOC(C)=O
Marked response: No

Exam item: Repeat with O=C1c2ccccc2C(=O)c2c(O)c(O)cc(O)c21
Marked response: No

Exam item: Repeat with CCc1ccccc1
Marked response: No

Exam item: Repeat with CCC=CC#N
Marked response: No

Exam item: Repeat with CCOC(=O)c1ccc(OCCN2C[C@H](O)[C@@H](O)[C@H](O)[C@H]2CO)cc1
Marked response: No

Exam item: Repeat with CC[N+](CC)(CCNC(=O)C(=O)NCC[N+](CC)(CC)Cc1ccccc1Cl)Cc1ccccc1Cl
Marked response: No

Exam item: Repeat with Cc1cccc(O)c1N
Marked response: No

Exam item: Repeat with CC1(C)O[C@@H]2C[C@H]3[C@@H]4C[C@H](F)C5=CC(=O)C=C[C@]5(C)[C@H]4[C@@H](O)C[C@]3(C)[C@]2(C(=O)CO)O1
Marked response: No

Exam item: Repeat with CC(=O)OCC[N+](C)(C)C
Marked response: No

Exam item: Repeat with CN1CCCN=C1COC(=O)C(O)(c1ccccc1)C1CCCCC1 (centres undefined)
Marked response: No

Exam item: Repeat with Brc1cc2ccccc2c2ccccc12
Marked response: No
